Where these numbers come from: the supplement of paper PMC10567573

B1: HESX1 (parent)
chain: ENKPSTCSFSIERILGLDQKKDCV

# Variants of: B1
# assay overview: protein stability index of a GFP-peptide fusion (GPS, HEK-293T) (PSI 1-6); higher = more stable;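 also: lentivirally expressed fusions sorted by FACS into six bins by GFP to DsRed ratio, PSI derived from sequencing read proportions per bin multiplied by bin number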
# setup conditions: c terminus: a fixed tail appended
# protein stability index >= 3 gives true (1), anything below gives false (0)

Is it the case that ENKPSTCSFSIERILGEDQKKDCV has protein stability index reaching or exceeding 3? true (1)

Confirm if protein stability index reported for the variant ENKPSTCSFSIERKLGLDQKKDCV is 3 or above. true (1)

Record ENKPSTCSQSIERILGLDQKKDCV ; criterion: protein stability index no lower than 3. Met? true (1)

Check this variant for protein stability index at or above 3: ENKPSTCSFSIERILGLDCKKDCV false (0)

Test whether the variant ENKPSTCAFSIERILGLDQKKDCV records protein stability index of 3 or higher. true (1)

# check: protein stability index of ENKPSTCSRSIERILGLDQKKDCV is greater than or equal to 3 true (1)

I'd appreciate it if you could say whether ENKPSTCSFSIERILGLDQKKDCP has protein stability index at least equal to 3. true (1)

Does the variant ENKPSTCSFSIERILGLDQHKDCV have recorded protein stability index that is 3 or more? false (0)

Reported protein stability index reaches at least 3 for ENVPSTCSFSIERILGLDQKKDCV ? false (0)

Check if protein stability index >= 3 (inclusive). Item: ENKPSDCSFSIERILGLDQKKDCV true (1)

Is protein stability index at least 3? Consider ENKPSTCSFSIERILGCDQKKDCV true (1)

Is reported protein stability index greater than or equal to 3 here: ENEPSTCSFSIERILGLDQKKDCV true (1)

Check if protein stability index >= 3 (inclusive). Item: YNKPSTCSFSIERILGLDQKKDCV false (0)

Is reported protein stability index greater than or equal to 3 here: EEKPSTCSFSIERILGLDQKKDCV true (1)

Is reported protein stability index greater than or equal to 3 here: ENKPSTCSFSIERILGLWQKKDCV false (0)

Given the entry ENKPSTCSFWIERILGLDQKKDCV , answer whether its protein stability index meets or surpasses 3. false (0)

protein stability index >= 3 for ENKPSTCSFSILRILGLDQKKDCV ? false (0)

Item ENKPSTCSFSIERILGLDQKCDCV with protein stability index of 3 or above? false (0)

Evaluate ENKYSTCSFSIERILGLDQKKDCV : protein stability index at minimum 3? false (0)

Is protein stability index for ENKPSTCSFSIERILGMDQKKDCV at or above 3? false (0)

Assess whether reported protein stability index for ENKPSTCSFSIERILGLDQSKDCV sits at 3 or higher. false (0)

Identify whether the reported protein stability index of the following variant is 3 or greater: ENKPSTCSFSIERILGLDQKKDCE true (1)
